Documented activity at 0.001 µM across a set of compounds
System: MK cells (MK-lin)
assay overview: MLTA, MK: concentration-response and QSP model fit
Assay type: cell-based, human
setup conditions: Homo sapiens, 144 h; dose 1 nM, 6 days, normalized to vehicle control; read-out: MK normalized cell count
The answer is to be given in %; state only the numeric part.

Solved entries (count: 6):
• CCN1CCN(Cc2ccc(Nc3ncc(F)c(-c4cc(F)c5nc(C)n(C(C)C)c5c4)n3)nc2)CC1 [abemaciclib] = 99.5
• CCc1cnn2c(NCc3ccc[n+]([O-])c3)cc(N3CCCC[C@H]3CCO)nc12 [dinaciclib] = 111
• CC(=O)c1c(C)c2cnc(Nc3ccc(N4CCNCC4)cn3)nc2n(C2CCCC2)c1=O [palbociclib] = 96.6
• CC(=O)O[C@H]1C(=O)[C@@]2(C)[C@H]([C@H](OC(=O)c3ccccc3)[C@]3(O)C[C@H](OC(=O)[C@H](O)[C@@H](NC(=O)c4ccccc4)c4ccccc4)C(C)=C1C3(C)C)[C@]1(OC(C)=O)CO[C@@H]1C[C@@H]2O [paclitaxel] = 110
• CS(=O)(=O)N1CCN(Cc2cc3nc(-c4cccc5[nH]ncc45)nc(N4CCOCC4)c3s2)CC1 [pictilisib] = 107
• O=C1CCC(N2C(=O)c3ccccc3C2=O)C(=O)N1 (centres unmarked) [thalidomide] = 103

Task: State, in one line, measured activity at 0.001 µM of CC(=O)O[C@@]12CO[C@@H]1C[C@H](O)[C@@]1(C)C(=O)[C@H](O)C3=C(C)[C@@H](OC(=O)[C@H](O)[C@@H](NC(=O)OC(C)(C)C)c4ccccc4)C[C@@](O)([C@@H](OC(=O)c4ccccc4)[C@H]21)C3(C)C [docetaxel]
Result: 109

Task: State, in one line, measured activity at 0.001 µM of CN(C)C(=O)c1cc2cnc(Nc3ccc(N4CCNCC4)cn3)nc2n1C1CCCC1 [ribociclib]
Result: 98.3

----------
Test system: total viable cells (totalViableCells)
assay overview: MLTA, total live cells concentration-response
Type: cell-based
setup conditions: Homo sapiens, 144 h; dose 25 nM, 6 days, normalized to vehicle control; read-out: total_live normalized cell count
Documented viability at 0.025 µM across a set of molecules
The answer is to be given in %; state only the numeric part.

Solved entries (count: 7):
• CC(=O)c1c(C)c2cnc(Nc3ccc(N4CCNCC4)cn3)nc2n(C2CCCC2)c1=O = 69.8
• CN(C)C(=O)c1cc2cnc(Nc3ccc(N4CCNCC4)cn3)nc2n1C1CCCC1 = 79.4
• CC(=O)O[C@H]1C(=O)[C@@]2(C)[C@H]([C@H](OC(=O)c3ccccc3)[C@]3(O)C[C@H](OC(=O)[C@H](O)[C@@H](NC(=O)c4ccccc4)c4ccccc4)C(C)=C1C3(C)C)[C@]1(OC(C)=O)CO[C@@H]1C[C@@H]2O = 1.22
• CS(=O)(=O)N1CCN(Cc2cc3nc(-c4cccc5[nH]ncc45)nc(N4CCOCC4)c3s2)CC1 = 84
• CC(=O)O[C@@]12CO[C@@H]1C[C@H](O)[C@@]1(C)C(=O)[C@H](O)C3=C(C)[C@@H](OC(=O)[C@H](O)[C@@H](NC(=O)OC(C)(C)C)c4ccccc4)C[C@@](O)([C@@H](OC(=O)c4ccccc4)[C@H]21)C3(C)C = 0.311
• CCc1cnn2c(NCc3ccc[n+]([O-])c3)cc(N3CCCC[C@H]3CCO)nc12 = 26.1
• O=C1CCC(N2C(=O)c3ccccc3C2=O)C(=O)N1 (centres unmarked) [thalidomide] = 116

Continue with the next molecule.
Task: State, in one line, measured viability at 0.025 µM of CCN1CCN(Cc2ccc(Nc3ncc(F)c(-c4cc(F)c5nc(C)n(C(C)C)c5c4)n3)nc2)CC1
Result: 47.7
